Quick reference for Emax among some molecules
# assay target: LXRβ (Homo sapiens, UniProt P55055)
# Construct: Co-transfection expression plasmids, comprising full-length LXRα (pCMX-h LXRα[…] or LXRβ (pCMX-hLXRβ)); expressed in transfected cells; host or cells: CV-1 African Green Monkey Kidney Cells
# Sequence (P55055 1-460): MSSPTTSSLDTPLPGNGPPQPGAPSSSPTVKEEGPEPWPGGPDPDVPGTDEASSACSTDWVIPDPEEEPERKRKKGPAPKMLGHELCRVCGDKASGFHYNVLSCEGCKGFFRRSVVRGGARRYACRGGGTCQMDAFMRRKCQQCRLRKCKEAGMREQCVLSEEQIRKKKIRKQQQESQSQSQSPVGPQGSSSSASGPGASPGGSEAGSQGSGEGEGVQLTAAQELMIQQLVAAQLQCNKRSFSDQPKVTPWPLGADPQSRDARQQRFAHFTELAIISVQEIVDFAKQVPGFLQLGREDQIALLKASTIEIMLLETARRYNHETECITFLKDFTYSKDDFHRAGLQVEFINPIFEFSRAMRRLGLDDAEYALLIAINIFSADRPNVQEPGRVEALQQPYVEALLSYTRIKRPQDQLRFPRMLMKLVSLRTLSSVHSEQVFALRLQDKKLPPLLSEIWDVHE
# Sequence (P19793 1-462 partner): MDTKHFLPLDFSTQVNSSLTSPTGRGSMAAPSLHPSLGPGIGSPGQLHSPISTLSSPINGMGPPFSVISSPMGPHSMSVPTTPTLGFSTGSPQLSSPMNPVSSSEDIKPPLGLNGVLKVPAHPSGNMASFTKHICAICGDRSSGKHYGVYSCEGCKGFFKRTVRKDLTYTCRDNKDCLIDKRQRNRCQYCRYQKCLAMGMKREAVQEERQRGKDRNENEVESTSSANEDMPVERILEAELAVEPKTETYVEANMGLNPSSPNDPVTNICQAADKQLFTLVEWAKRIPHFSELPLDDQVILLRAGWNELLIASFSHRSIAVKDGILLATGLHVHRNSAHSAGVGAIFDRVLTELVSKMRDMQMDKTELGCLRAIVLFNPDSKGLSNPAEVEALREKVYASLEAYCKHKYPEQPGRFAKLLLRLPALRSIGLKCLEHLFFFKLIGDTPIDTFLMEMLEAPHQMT
# protocol description: Co-transfection assay (LXRE luciferase reporter), LXRβ
# Type: cell-based
# condition label: LXRβ co-transfection; relative to high control 1-(2,4-difluorobenzyl)-2-oxo-6-(4-phenoxyphenyl)-4-(trifluoromethyl)-1,2-dihydropyridine-3-carbonitrile; read-out: % Efficacy
reported metric: Emax (%)

INSERT INTO assay_data (compound_structure, units_of_measure, numeric_readout) VALUES
  ('Cc1nc(C(F)(F)F)cn1-c1ccc(-c2cc(F)c(CO)c(S(C)(=O)=O)c2)cc1-c1ccnn1-c1ccc(Cl)cc1', '%', 81),
  ('Cc1nc(C(F)(F)F)cn1-c1ccc(-c2cc(F)c(CO)c(S(C)(=O)=O)c2)cc1-c1ncoc1-c1ccc(Cl)cc1', '%', 81),
  ('Cc1nc(-c2cc(-c3cccc(S(C)(=O)=O)c3)ccc2-n2cc(C(F)(F)F)nc2C)c(-c2ccc(OC(F)F)c(Cl)c2)o1', '%', 79);

###

# assay target: LXRβ (Homo sapiens, UniProt P55055)
# Construct: Co-transfection expression plasmids, comprising full-length LXRα (pCMX-h LXRα[…] or LXRβ (pCMX-hLXRβ)); expressed in transfected cells; host or cells: CV-1 African Green Monkey Kidney Cells
# protocol description: Co-transfection assay (LXRE luciferase reporter), LXRβ
# Format: cell-based
# condition label: LXRβ co-transfection; relative to high control 1-(2,4-difluorobenzyl)-2-oxo-6-(4-phenoxyphenyl)-4-(trifluoromethyl)-1,2-dihydropyridine-3-carbonitrile; read-out: % Efficacy
reported metric: Emax (%)

INSERT INTO results (compound_structure, assay_target, units_of_measure, numeric_readout) VALUES
  ('Cc1nc(C(C)(F)F)cn1-c1ccc(-c2cc(F)c(CO)c(S(C)(=O)=O)c2)cc1-c1ocnc1-c1ccc(OC(F)(F)F)cc1', 'LXRβ (Homo sapiens, UniProt P55055)', '%', 79),
  ('Cc1nc(-c2cc(-c3cc(F)c(CO)c(S(C)(=O)=O)c3)ccc2-n2cc(Cl)nc2C)c(-c2ccc(OC(F)F)c(F)c2)o1', 'LXRβ (Homo sapiens, UniProt P55055)', '%', 65),
  ('Cc1nc(C(F)(F)F)cn1-c1ccc(-c2cccc(S(C)(=O)=O)c2)cc1-c1cnnn1-c1ccc(OC(F)(F)F)cc1', 'LXRβ (Homo sapiens, UniProt P55055)', '%', 105),
  ('CCCc1nc(-c2ccc(OC(F)(F)F)cc2)c(-c2cc(-c3cccc(S(C)(=O)=O)c3)ccc2-n2cc(C(F)(F)F)nc2C)o1', 'LXRβ (Homo sapiens, UniProt P55055)', '%', 87),
  ('Cc1nc(-c2cc(-c3ccc(C)c(S(C)(=O)=O)c3)ccc2-n2cc(C(F)(F)F)nc2C)c(-c2ccc(OC(F)F)c(F)c2)o1', 'LXRβ (Homo sapiens, UniProt P55055)', '%', 87),
  ('CCS(=O)(=O)c1cccc(-c2ccc(-n3cc(C(F)(F)F)nc3C)c(-n3nncc3-c3ccc(OC(F)(F)F)cc3)c2)c1', 'LXRβ (Homo sapiens, UniProt P55055)', '%', 86),
  ('Cc1nc(C(F)(F)F)cn1-c1ccc(-c2cc(F)c(CO)c(S(C)(=O)=O)c2)cc1-c1nc(CCO)oc1-c1ccc(OC(F)(F)F)cc1', 'LXRβ (Homo sapiens, UniProt P55055)', '%', 67),
  ('Cc1nc(C(F)(F)F)cn1-c1ccc(-c2cccc(S(C)(=O)=O)c2)cc1-n1nncc1-c1ccc(Cl)c(Cl)c1', 'LXRβ (Homo sapiens, UniProt P55055)', '%', 97),
  ('Cc1nc(-c2cc(-c3cc(F)c(CO)c(S(C)(=O)=O)c3)ccc2-n2cc(C(F)(F)F)nc2C)c(-c2ccc(OC(F)F)c(F)c2)o1', 'LXRβ (Homo sapiens, UniProt P55055)', '%', 77),
  ('Cc1nc(C(F)(F)F)cn1-c1ccc(-c2ccc(CO)c(S(C)(=O)=O)c2)cc1-c1nc(C(C)C)oc1-c1ccc(OC(F)(F)F)cc1', 'LXRβ (Homo sapiens, UniProt P55055)', '%', 71),
  ('Cc1nc(C(F)(F)F)cn1-c1ccc(-c2cccc(S(C)(=O)=O)c2)cc1-n1nncc1-c1ccc(Cl)cc1F', 'LXRβ (Homo sapiens, UniProt P55055)', '%', 92);

###

Entries and their measured EC50 follow.
# assay target: LXRβ (Homo sapiens, UniProt P55055)
# Construct: Co-transfection expression plasmids, comprising full-length LXRα (pCMX-h LXRα[…] or LXRβ (pCMX-hLXRβ))
# protocol description: Co-transfection assay (LXRE luciferase reporter), LXRβ
# condition label: CV-1 cells transfected with pCMX-hLXRβ and LXREx1-Tk-Luciferase; 20 hours incubation
reported metric: EC50 (nM)

INSERT INTO measurements (compound, numeric_readout) VALUES
  ('Cc1ccc(C(C)c2cnnn2-c2cc(-c3cccc(S(=O)(=O)N(C)C)c3)ccc2-n2cc(C(F)(F)F)nc2C)cc1 (centres unmarked)', 227),
  ('Cc1nc(C(F)F)cn1-c1ccc(-c2cccc(S(C)(=O)=O)c2)cc1-n1nncc1-c1ccc(Cl)cc1Cl', 1600),
  ('Cc1nc(-c2cc(-c3cccc(S(C)(=O)=O)c3)ccc2-n2cc(C(F)(F)F)nc2C)c(-c2cccc(Cl)n2)o1', 1310),
  ('Cc1nc(C(F)(F)F)cn1-c1ccc(-c2cccc(S(C)(=O)=O)c2)cc1-n1nncc1-c1ccc(Cl)c(Cl)c1', 127),
  ('Cc1nc(C(F)(F)F)cn1-c1cc(F)c(-c2cccc(S(C)(=O)=O)c2)cc1-n1nncc1-c1ccc(OC(F)(F)F)cc1', 1010),
  ('Cc1nc(-c2ccc(OC(F)(F)F)cc2O)c(-c2cc(-c3cccc(S(C)(=O)=O)c3)ccc2-n2cc(C(F)(F)F)nc2C)o1', 57),
  ('CS(=O)(=O)c1cc(-c2ccc(-n3cc(C(F)(F)F)nc3Cl)c(-n3nncc3-c3ccc(Cl)cc3)c2)cc(F)c1CO', 110),
  ('Cc1nc(-c2cc(-c3cccc(S(C)(=O)=O)c3)ccc2-n2cc(Cl)nc2C)c(-c2ccc(OC(F)F)c(F)c2)o1', 198);

###

# assay target: LXRβ (Homo sapiens, UniProt P55055)
# Construct: Co-transfection expression plasmids, comprising full-length LXRα (pCMX-h LXRα[…] or LXRβ (pCMX-hLXRβ)); expressed in transfected cells; host or cells: CV-1 African Green Monkey Kidney Cells
# Sequence (P55055 1-460): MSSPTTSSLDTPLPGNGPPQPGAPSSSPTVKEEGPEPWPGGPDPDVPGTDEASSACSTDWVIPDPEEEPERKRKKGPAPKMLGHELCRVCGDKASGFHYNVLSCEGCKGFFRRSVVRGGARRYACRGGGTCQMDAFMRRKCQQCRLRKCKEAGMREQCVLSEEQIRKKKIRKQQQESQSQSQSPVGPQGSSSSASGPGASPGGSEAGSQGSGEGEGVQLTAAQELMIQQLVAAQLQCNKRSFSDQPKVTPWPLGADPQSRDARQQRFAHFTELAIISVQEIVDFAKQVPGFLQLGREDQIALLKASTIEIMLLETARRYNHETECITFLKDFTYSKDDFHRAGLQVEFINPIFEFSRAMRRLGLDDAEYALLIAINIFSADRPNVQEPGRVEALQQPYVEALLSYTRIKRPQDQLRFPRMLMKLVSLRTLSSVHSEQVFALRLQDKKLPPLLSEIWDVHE
# Sequence (P19793 1-462 partner): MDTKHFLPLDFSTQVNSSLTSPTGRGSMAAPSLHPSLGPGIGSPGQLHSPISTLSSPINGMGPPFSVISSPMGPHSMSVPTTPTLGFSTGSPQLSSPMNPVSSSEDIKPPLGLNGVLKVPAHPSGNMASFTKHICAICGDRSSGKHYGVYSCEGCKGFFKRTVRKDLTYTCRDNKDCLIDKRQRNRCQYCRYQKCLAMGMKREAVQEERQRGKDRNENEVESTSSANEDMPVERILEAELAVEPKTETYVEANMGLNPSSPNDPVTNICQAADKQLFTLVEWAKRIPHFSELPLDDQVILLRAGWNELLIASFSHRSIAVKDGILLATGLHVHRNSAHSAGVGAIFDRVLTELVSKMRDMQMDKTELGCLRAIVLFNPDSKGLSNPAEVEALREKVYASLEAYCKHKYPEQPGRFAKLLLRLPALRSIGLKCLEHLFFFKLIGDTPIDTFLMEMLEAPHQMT
# protocol description: Co-transfection assay (LXRE luciferase reporter), LXRβ
# Format: cell-based
# condition label: LXRβ co-transfection; relative to high control 1-(2,4-difluorobenzyl)-2-oxo-6-(4-phenoxyphenyl)-4-(trifluoromethyl)-1,2-dihydropyridine-3-carbonitrile; read-out: % Efficacy
Kind request: treat 70% as inclusive, so Emax at 70% or higher is T, anything lower is F.

INSERT INTO measurements (molecule, assay_target, label_class) VALUES
  ('CNS(=O)(=O)c1cccc(-c2cc(F)c(-n3cc(C(F)(F)F)nc3C)c(-n3nncc3-c3ccc(OC(F)(F)F)cc3)c2)c1', 'LXRβ (Homo sapiens, UniProt P55055)', 'T'),
  ('Cc1nc(-c2cc(-c3cc(F)c(CO)c(S(C)(=O)=O)c3)ccc2-n2cc(C(F)(F)F)nc2C)c(-c2ccc3c(c2)C(O)C(F)(F)O3)o1 (centres unmarked)', 'LXRβ (Homo sapiens, UniProt P55055)', 'F'),
  ('Cc1ncc(-c2oc(C)nc2-c2cc(-c3cc(F)c(CO)c(S(C)(=O)=O)c3)ccc2-n2cc(C(F)(F)F)nc2C)cn1', 'LXRβ (Homo sapiens, UniProt P55055)', 'F'),
  ('Cc1nc(-c2cc(-c3cc(F)c(CO)c(S(C)(=O)=O)c3)ccc2-n2cc(C(F)(F)F)nc2C)c(-c2cccc(OC(F)(F)C(F)F)c2)o1', 'LXRβ (Homo sapiens, UniProt P55055)', 'F');
